Quick list: IC50 per entry.
target: Somatostatin receptor type 1 (Homo sapiens, UniProt P30872)
Sequence (P30872 whole entry): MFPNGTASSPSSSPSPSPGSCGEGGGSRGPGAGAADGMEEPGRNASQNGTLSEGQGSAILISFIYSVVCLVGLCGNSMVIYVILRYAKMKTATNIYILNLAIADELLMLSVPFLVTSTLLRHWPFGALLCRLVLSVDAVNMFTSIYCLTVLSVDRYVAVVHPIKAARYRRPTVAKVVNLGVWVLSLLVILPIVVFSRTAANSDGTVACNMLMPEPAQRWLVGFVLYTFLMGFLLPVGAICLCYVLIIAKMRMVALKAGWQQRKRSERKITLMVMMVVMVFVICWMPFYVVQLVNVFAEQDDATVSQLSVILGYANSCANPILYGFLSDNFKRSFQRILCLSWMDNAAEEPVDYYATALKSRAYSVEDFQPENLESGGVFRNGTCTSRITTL

Check out these entries, answers already filled in.
CC(=O)N[C@H]1SS[C@H](C(=O)O)NC(=O)[C@H](Cc2ccccc2)NC(=O)[C@H]([C@@H](C)O)NC(=O)[C@H](CCCCN)NC(=O)[C@@H](Cc2c[nH]c3ccccc23)NC(=O)[C@H](Cc2ccccc2)NC(=O)[C@H](Cc2ccccc2)NC1=O : > 1000 nM
CC(=O)N[C@H]1SSC[C@H](C(=O)O)NC(=O)[C@H](Cc2ccccc2)NC(=O)[C@H]([C@@H](C)O)NC(=O)[C@H](CCCCN)NC(=O)[C@@H](Cc2c[nH]c3ccccc23)NC(=O)[C@H](Cc2ccccc2)NC(=O)[C@H](Cc2ccccc2)NC1=O : > 1000 nM

Now for the molecule whose IC50 we want.
Any idea what IC50 came out for CC(=O)N[C@H]1CSSC[C@H](C(=O)O)NC(=O)[C@H](Cc2ccccc2)NC(=O)[C@H]([C@@H](C)O)NC(=O)[C@H](CCCCN)NC(=O)[C@@H](Cc2c[nH]c3ccccc23)NC(=O)[C@H](Cc2ccccc2)NC(=O)[C@H](Cc2ccccc2)NC1=O on Somatostatin receptor type 1 (Homo sapiens, UniProt P30872)?
> 1000 nM

----------
biological target: Somatostatin receptor type 2 (Homo sapiens, UniProt P30874); test: Displacement of [125I]-[Leu8, DTrp22, Tyr25]SRIF-28 from human cloned sst2 receptor expressed in CCL39 cells
Sequence (P30874 whole entry): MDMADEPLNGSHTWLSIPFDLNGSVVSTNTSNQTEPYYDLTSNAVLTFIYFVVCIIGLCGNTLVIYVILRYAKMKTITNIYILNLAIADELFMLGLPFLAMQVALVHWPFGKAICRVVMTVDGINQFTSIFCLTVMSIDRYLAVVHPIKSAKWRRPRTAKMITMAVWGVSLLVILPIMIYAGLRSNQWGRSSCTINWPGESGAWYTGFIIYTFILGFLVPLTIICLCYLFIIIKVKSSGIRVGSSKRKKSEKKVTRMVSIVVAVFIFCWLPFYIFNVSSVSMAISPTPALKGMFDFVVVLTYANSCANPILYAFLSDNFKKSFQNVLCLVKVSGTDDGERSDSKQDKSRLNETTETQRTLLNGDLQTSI
pIC50: −log10 of the molar value.
QUANTITY MEASURED: pIC50

P. CC(=O)N[C@H]1CSSC[C@@H](C(=O)O)NC(=O)[C@H](Cc2ccccc2)NC(=O)[C@H]([C@@H](C)O)NC(=O)[C@H](CCCCN)NC(=O)[C@@H](Cc2c[nH]c3ccccc23)NC(=O)[C@H](Cc2ccccc2)NC(=O)[C@H](Cc2ccccc2)NC1=O
Q. CC(=O)N[C@H]1CCSSC[C@@H](C(=O)O)NC(=O)[C@H](Cc2ccccc2)NC(=O)[C@H]([C@@H](C)O)NC(=O)[C@H](CCCCN)NC(=O)[C@@H](Cc2c[nH]c3ccccc23)NC(=O)[C@H](Cc2ccccc2)NC(=O)[C@H](Cc2ccccc2)NC1=O
Of P and Q , whose reported pIC50 is numerically smaller? Kindly state the label of the option you pick.
P
(P: 7.31, Q: 8.19)

1. CC(=O)N[C@@H]1CSSC[C@@H](C(=O)O)NC(=O)[C@H](Cc2ccccc2)NC(=O)[C@H]([C@@H](C)O)NC(=O)[C@H](CCCCN)NC(=O)[C@@H](Cc2c[nH]c3ccccc23)NC(=O)[C@H](Cc2ccccc2)NC(=O)[C@H](Cc2ccccc2)NC1=O
2. CC(=O)N[C@@H]1CSS[C@H](C(=O)O)NC(=O)[C@H](Cc2ccccc2)NC(=O)[C@H]([C@@H](C)O)NC(=O)[C@H](CCCCN)NC(=O)[C@@H](Cc2c[nH]c3ccccc23)NC(=O)[C@H](Cc2ccccc2)NC(=O)[C@H](Cc2ccccc2)NC1=O
Of 1 and 2 , whose reported pIC50 is numerically smaller? Kindly state the label of the option you pick.
2
(2: 7.73, 1: 8.10)

----------
molecular target: Somatostatin receptor type 2 (Homo sapiens, UniProt P30874); assay: Displacement of [125I]-[Leu8, DTrp22, Tyr25]SRIF-28 from human cloned sst2 receptor expressed in CCL39 cells
pIC50: −log10 of the molar value.
QUANTITY MEASURED: pIC50

CC(=O)N[C@H]1CSS[C@H](C(=O)O)NC(=O)[C@H](Cc2ccccc2)NC(=O)[C@H]([C@@H](C)O)NC(=O)[C@H](CCCCN)NC(=O)[C@@H](Cc2c[nH]c3ccccc23)NC(=O)[C@H](Cc2ccccc2)NC(=O)[C@H](Cc2ccccc2)NC1=O : 7.39
CC(=O)N[C@H]1SS[C@@H](C(=O)O)NC(=O)[C@H](Cc2ccccc2)NC(=O)[C@H]([C@@H](C)O)NC(=O)[C@H](CCCCN)NC(=O)[C@@H](Cc2c[nH]c3ccccc23)NC(=O)[C@H](Cc2ccccc2)NC(=O)[C@H](Cc2ccccc2)NC1=O : 7.89
C[C@@H](O)[C@@H]1NC(=O)[C@H](CCCCN)NC(=O)[C@@H](Cc2c[nH]c3ccccc23)NC(=O)[C@H](Cc2ccccc2)NC(=O)[C@H](Cc2ccccc2)NC(=O)C(N)CSSC[C@@H](C(=O)O)NC(=O)[C@H](Cc2ccccc2)NC1=O (single isomer, unassigned) : 7.84

1. CC(=O)N[C@@H]1SSC[C@H](C(=O)O)NC(=O)[C@H](Cc2ccccc2)NC(=O)[C@H]([C@@H](C)O)NC(=O)[C@H](CCCCN)NC(=O)[C@@H](Cc2c[nH]c3ccccc23)NC(=O)[C@H](Cc2ccccc2)NC(=O)[C@H](Cc2ccccc2)NC1=O
2. CC(=O)N[C@H]1CSSC[C@H](C(=O)O)NC(=O)[C@H](Cc2ccccc2)NC(=O)[C@H]([C@@H](C)O)NC(=O)[C@H](CCCCN)NC(=O)[C@@H](Cc2c[nH]c3ccccc23)NC(=O)[C@H](Cc2ccccc2)NC(=O)[C@H](Cc2ccccc2)NC1=O
Of 1 and 2 , whose reported pIC50 is numerically smaller? Kindly state the label of the option you pick.
1
(1: 7.96, 2: 8.31)
